Molecular target: HRV3C (Human rhinovirus 14)
Construct: 3CLpro and HRV3C was added using a Multidrop Combi
Sequence (P03303 1538-1719): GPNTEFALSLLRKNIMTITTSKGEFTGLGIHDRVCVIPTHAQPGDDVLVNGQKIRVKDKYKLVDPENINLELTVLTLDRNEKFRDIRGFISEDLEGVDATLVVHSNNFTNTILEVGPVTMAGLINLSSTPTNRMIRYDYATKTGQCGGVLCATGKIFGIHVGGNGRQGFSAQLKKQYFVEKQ
Assay: biochemical
Design: species or system HRV
Conditions: HRV3C, 30 mins preincubation, SAMDI-MS; read-out: HRV IC50 (bound)
pIC50: −log10 of the molar value.
Observable: pIC50

CC1(C(NC(=O)C(F)(F)F)C(=O)N2C[C@H]3[C@@H]([C@H]2C(=O)N[C@H](C#N)C[C@@H]2CCNC2=O)[C@H]2C=C[C@@H]3C2)CC1 (some centres unmarked) : < 5.00
C#CC(C)(C)[C@H](NC(=O)C(F)(F)F)C(=O)N1C[C@@H]2[C@@H]3CC[C@@H](C3)[C@@H]2[C@H]1C(=O)N[C@H](C#N)C[C@@H]1CCNC1=O : < 5.00
C=CC1([C@H](NC(=O)C(F)(F)F)C(=O)N2C[C@H]3[C@@H]([C@H]2C(=O)N[C@H](C#N)C[C@@H]2CCNC2=O)[C@H]2C=C[C@@H]3C2)CCC1 : < 5.00
CC(C)(C)[C@H](NC(=O)C(F)(F)F)C(=O)N1C[C@H]2[C@@H]([C@H]1C(=O)N[C@H](C#N)C[C@@H]1OCCNC1=O)[C@H]1C=C[C@@H]2C1(F)F : < 6.30

Attention now shifts to the item below.
Memo: CC(C)(C)[C@H](NC(=O)CC(F)(F)F)C(=O)N1C[C@H]2[C@@H]([C@H]1C(=O)N[C@H](C#N)C[C@@H]1OCCNC1=O)[C@H]1C=C[C@@H]2C1 , reported pIC50: < 6.30

These measurements were taken from patent US12252481B2.
